Some compounds, each annotated with its measured melting point.

Reference set (8 entries):
INSERT INTO assay_data (compound, result) VALUES
  ('CCOC(=O)c1ccc(-c2cnc3c(c2)N(Cc2ccccc2)CCN3)cc1', '178 to 179 °C'),
  ('Cc1cc(C)nc(OC(C(=O)O)c2ccccc2)n1 (stereo not given)', '148 °C'),
  ('COc1cc(NC(=O)Nc2c(-c3ccccc3Cl)c3cc(C)c(C)cc3n(C)c2=O)cc(OC)c1OC(C)=O', '233 to 234 °C'),
  ('COCc1ncnc(O)c1OC', '141 to 143 °C'),
  ('COC(=O)c1ccc(C(=O)c2ccc3c(c2)C2(C)C4(C)CCC(C4)C2(C)O3)cc1 (stereo not given)', '150 °C'),
  ('O=C(Oc1cc(=O)[nH]cc1Cl)c1ccccc1', '196 to 197 °C'),
  ('O=C1NC(=Cc2cccc(Cl)c2)C(=O)C1=NO', '185 °C'),
  ('CCCCOc1c(CNC(=O)OC(C)(C)C)n(CC(C)C)c(=O)c2ccc(-c3nc(C)c(C(=O)OCC)s3)cc12', '146 to 147 °C');

Field request: melting point | item: CC(C)(C)OC(=O)NNC(=O)N1CCC(Br)C1=O (stereo not given)
122 to 123 °C

COc1ccc(-c2cc3cc(F)c(F)cc3[nH]2)cc1N ?
210 to 211 °C

Nc1cc(C(=O)c2cc3ccccc3o2)ccc1Cl ?
137 °C

NC(=O)c1ncn(Cc2ccccc2)c1NC(=S)NC(=O)c1ccccc1 ?
181 to 182 °C

CC1N=NC2=CN=C(c3ccccc3Cl)c3cc(C(=O)Cl)ccc3N21 (stereo not given) ?
295 to 297 °C

Values were extracted from a melting point compilation (Tetko et al.; mined from patent text by program, amines drawn as free bases though some values may be those of a salt).
